target.under.test: h-cGAS (Homo sapiens)
Sequence (Q8N884 whole entry): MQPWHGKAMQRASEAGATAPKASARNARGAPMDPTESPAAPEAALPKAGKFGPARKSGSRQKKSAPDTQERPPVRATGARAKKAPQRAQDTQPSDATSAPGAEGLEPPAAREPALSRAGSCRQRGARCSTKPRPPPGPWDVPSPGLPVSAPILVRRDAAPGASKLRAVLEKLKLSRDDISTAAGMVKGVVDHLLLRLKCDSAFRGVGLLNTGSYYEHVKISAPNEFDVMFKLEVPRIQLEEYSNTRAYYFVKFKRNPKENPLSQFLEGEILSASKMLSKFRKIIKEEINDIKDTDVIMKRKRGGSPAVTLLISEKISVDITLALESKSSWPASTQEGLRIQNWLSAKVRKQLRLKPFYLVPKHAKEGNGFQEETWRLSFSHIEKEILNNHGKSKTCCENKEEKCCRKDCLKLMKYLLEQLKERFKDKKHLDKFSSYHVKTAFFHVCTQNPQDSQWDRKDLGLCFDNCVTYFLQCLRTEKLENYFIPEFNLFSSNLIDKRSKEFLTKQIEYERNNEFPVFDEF
The label yes (1) is reserved for IC50 strictly under 100 nM; no (0) covers values equal to or above it.

Use these answered entries as a reference point.
- compound: "COc1cccnc1-c1cc(Cl)c(Cl)c2[nH]c3c(c12)CN(C(=O)CO)CC3"
  target.under.test: "h-cGAS (Homo sapiens)"
  category: "yes (1)"
- compound: "O=C(CO)N1CCc2[nH]c3c(F)c(Cl)cc(N4CCC(O)C4)c3c2C1 (centres unmarked)"
  target.under.test: "h-cGAS (Homo sapiens)"
  category: "no (0)"

Inquiry: Find out if reported IC50 for COCCc1cc(Cl)c(Cl)c2[nH]c3c(c12)CN(C(=O)CO)CC3 is less than 100 nM
Reply text: no (0)

Inquiry: Find out if reported IC50 for Cc1noc(-c2cc(Cl)c(Cl)c3[nH]c4c(c23)CN(C(=O)CO)CC4)n1 is less than 100 nM
Reply text: yes (1)

Inquiry: Find out if reported IC50 for COc1ccc(-c2cc(Cl)c(Cl)c3[nH]c4c(c23)CN(C(=O)CO)CC4)nc1 is less than 100 nM
Reply text: no (0)

====

Tested on: THP1 cells
procedure.details: IFNB1 mRNA expression, qRT-PCR, THP1 cells
Type: cell-based
experimental.context: Homo sapiens, THP-1; IFNB1 mRNA, 4 hours post-transfection of dsDNA; read-out: THP1, qRT-PCR IC50
quantity: IC50 (nM)
Write down the numeric answer in nM and omit the unit.

Some compounds with recorded IC50:
- smiles.input: "Cn1ccc(-c2cc(Cl)c(F)c3[nH]c4c(c23)CN(C(=O)CO)CC4)n1"
  target.under.test: "THP1 cells"
  observed.value: 1090
- smiles.input: "Cn1cc(-c2cc(Cl)c(Cl)c3[nH]c4c(c23)CN(C(=O)CO)CC4)cn1"
  target.under.test: "THP1 cells"
  observed.value: 2140

Inquiry: What IC50 appears in the records for this compound with THP1 cells? Cn1ccc(-c2cc(Cl)c(Cl)c3[nH]c4c(c23)CN(C(=O)CO)CC4)n1
Reply text: 930

Inquiry: What IC50 appears in the records for this compound with THP1 cells? O=C(CO)N1CCc2[nH]c3c(Cl)c(Cl)cc(-c4cn[nH]c4)c3c2C1
Reply text: 1440

====

Test system: primary human macrophage cells
procedure.details: IFNB1 mRNA expression, qRT-PCR, primary human macrophages
Format: cell-based
experimental.context: IFNB1 mRNA, 4 hours post-transfection of dsDNA, read-out: Human Macrophage, qRT-PCR IC50
Each entry below carries its reported IC50.
Number plus unit, in that order.

Some compounds with recorded IC50:
- compound: "Cn1ccc(-c2cc(Cl)c(F)c3[nH]c4c(c23)CN(C(=O)CO)CC4)n1 [TDI-008246]"
  IC50: "600 nM"
- compound: "Cn1ccc(-c2cc(Cl)c(Cl)c3[nH]c4c(c23)CN(C(=O)CO)CC4)n1 [TDI-008077]"
  IC50: "860 nM"

Please look at the following compound next.
Inquiry: Given the entry O=C(CO)N1CCc2[nH]c3c(Cl)c(Cl)cc(-c4cn[nH]c4)c3c2C1 [TDI-007445] , report its measured IC50.
Reply text: 1200 nM

====

Measurement record for h-cGAS (Homo sapiens); quantity recorded: log10 IC50.
In our notation, the value equals log10 of IC50 in nM.

- molecule: "Cn1c2c(c3ccc(Cl)c(F)c31)CN(C(=O)CO)CC2 [TDI-006570]"
  target.under.test: "h-cGAS (Homo sapiens)"
  quantity: "log10 IC50"
  observed.value: 2.14
- molecule: "O=C(CO)N1CCc2[nH]c3c(F)c(Cl)cc(N4CCCC4)c3c2C1 [TDI-008860]"
  target.under.test: "h-cGAS (Homo sapiens)"
  quantity: "log10 IC50"
  observed.value: 2.54
- molecule: "N#CC1CCN(c2cc(Cl)c(F)c3[nH]c4c(c23)CN(C(=O)CO)CC4)C1 (centres unmarked) [TDI-008865]"
  target.under.test: "h-cGAS (Homo sapiens)"
  quantity: "log10 IC50"
  observed.value: 3.20
- molecule: "Cc1cc(-c2cc(Cl)c(Cl)c3[nH]c4c(c23)CN(C(=O)CO)CC4)ccn1 [TDI-008445]"
  target.under.test: "h-cGAS (Homo sapiens)"
  quantity: "log10 IC50"
  observed.value: 1.54
- molecule: "N#Cc1ncc(-c2cc(Cl)c(Cl)c3[nH]c4c(c23)CN(C(=O)CO)CC4)cn1 [TDI-008100]"
  target.under.test: "h-cGAS (Homo sapiens)"
  quantity: "log10 IC50"
  observed.value: 3.72

Inquiry: What log10 IC50 appears in the records for this molecule with h-cGAS (Homo sapiens)? Cn1ncc(-c2cc(Cl)c(Cl)c3[nH]c4c(c23)CN(C(=O)CO)CC4)n1 [TDI-009007]
Reply text: 1.37

Inquiry: What log10 IC50 appears in the records for this molecule with h-cGAS (Homo sapiens)? O=C(CO)N1CCc2[nH]c3c(Cl)c(Cl)cc(-c4cnn5ccccc45)c3c2C1 [TDI-008116]
Reply text: 1.40

Inquiry: What log10 IC50 appears in the records for this molecule with h-cGAS (Homo sapiens)? COc1cc(-c2cc(Cl)c(Cl)c3[nH]c4c(c23)CN(C(=O)CO)CC4)ccn1 [TDI-008106]
Reply text: 1.69

Inquiry: What log10 IC50 appears in the records for this molecule with h-cGAS (Homo sapiens)? COc1ccnc(-c2cc(Cl)c(Cl)c3[nH]c4c(c23)CN(C(=O)CO)CC4)c1 [TDI-008104]
Reply text: 1.98

Inquiry: What log10 IC50 appears in the records for this molecule with h-cGAS (Homo sapiens)? C[C@H]1CN(C(=O)CO)Cc2c1[nH]c1c(F)c(Cl)cc(-c3ccn(C)n3)c21 [TDI-009001]
Reply text: 1.51

Inquiry: What log10 IC50 appears in the records for this molecule with h-cGAS (Homo sapiens)? O=C(CO)N1CCc2c(c3c(-c4cn[nH]c4)cc(Cl)c(F)c3n2C(F)F)C1 [TDI-008136]
Reply text: 2.62

Inquiry: What log10 IC50 appears in the records for this molecule with h-cGAS (Homo sapiens)? Cn1c(=O)[nH]c2cc(-c3cc(Cl)c(Cl)c4[nH]c5c(c34)CN(C(=O)CO)CC5)ccc21 [TDI-008461]
Reply text: 2.54

Inquiry: What log10 IC50 appears in the records for this molecule with h-cGAS (Homo sapiens)? O=C(CO)N1CCc2c(c3ccc(Br)c(F)c3n2CC(F)(F)F)C1 [TDI-008130]
Reply text: 3.05

Inquiry: What log10 IC50 appears in the records for this molecule with h-cGAS (Homo sapiens)? COc1cnccc1-c1cc(Cl)c(Cl)c2[nH]c3c(c12)CN(C(=O)CO)CC3 [TDI-008109]
Reply text: 3.37

Inquiry: What log10 IC50 appears in the records for this molecule with h-cGAS (Homo sapiens)? N#Cc1cccc(-c2cc(Cl)c(Cl)c3[nH]c4c(c23)CN(C(=O)CO)CC4)c1 [TDI-008098]
Reply text: 1.93

Inquiry: What log10 IC50 appears in the records for this molecule with h-cGAS (Homo sapiens)? C[C@@H]1CCN(c2cc(Cl)c(F)c3[nH]c4c(c23)CN(C(=O)CO)CC4)C1 [TDI-008862]
Reply text: 2.68

Inquiry: What log10 IC50 appears in the records for this molecule with h-cGAS (Homo sapiens)? CCn1ccc(-c2cc(Cl)c(Cl)c3[nH]c4c(c23)CN(C(=O)CO)CC4)n1 [TDI-008371]
Reply text: 1.37

====

target.under.test: h-cGAS (Homo sapiens)
quantity: IC50 (µM)
Write down the numeric answer in µM and omit the unit.

Some molecules with recorded IC50:
- smiles.input: "O=C(CO)N1CCc2c(c3ccc(Br)c(F)c3n2C(F)F)C1"
  observed.value: 0.506
- smiles.input: "CN(C)c1cccc(-c2cc(Cl)c(Cl)c3[nH]c4c(c23)CN(C(=O)CO)CC4)c1"
  observed.value: 0.438
- smiles.input: "O=C(CO)N1CCc2[nH]c3c(Cl)c(Cl)cc(CN4CCCC4)c3c2C1"
  observed.value: 2.23
- smiles.input: "COc1cccc(-c2cc(Cl)c(Cl)c3[nH]c4c(c23)CN(C(=O)CO)CC4)n1"
  observed.value: 0.0402

Inquiry: Given the entry Cn1ccc(-c2cc(Cl)c(Cl)c3[nH]c4c(c23)CN(C(=O)CO)CC4)n1 , report its measured IC50.
Reply text: 0.0146

Inquiry: Given the entry COc1cncc(-c2cc(Cl)c(Cl)c3[nH]c4c(c23)CN(C(=O)CO)CC4)c1 , report its measured IC50.
Reply text: 0.0524

Inquiry: Given the entry O=C(CO)N1CCc2[nH]c3c(Cl)c(Cl)cc(-c4cncnc4)c3c2C1 , report its measured IC50.
Reply text: 0.0194

Inquiry: Given the entry COc1ncc(-c2cc(Cl)c(Cl)c3[nH]c4c(c23)CN(C(=O)CO)CC4)cn1 , report its measured IC50.
Reply text: 0.201
